B1: F1*; the commonest letter at each place (parent)
chain: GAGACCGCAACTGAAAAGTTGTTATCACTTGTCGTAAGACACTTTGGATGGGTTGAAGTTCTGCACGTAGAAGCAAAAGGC

Variants of: B1
Test: fraction ligated after 30 min (ligated reads / total reads); higher = more ligase activity
Details: with F1*sub RNA substrate (template-directed ligation), 42 °C
parameter: fraction ligated
Give bare numbers.

Reference set, count: 8
- mutation_key: "A36G A57C"
  parameter: "fraction ligated"
  result_number: 0.863
- mutation_key: "A27C G47C"
  parameter: "fraction ligated"
  result_number: 0.158
- mutation_key: "A24G T35C"
  parameter: "fraction ligated"
  result_number: 0.776
- mutation_key: "unchanged"
  parameter: "fraction ligated"
  result_number: 0.826
- mutation_key: "G34A G47T"
  parameter: "fraction ligated"
  result_number: 0.373
- mutation_key: "C26T G50C"
  parameter: "fraction ligated"
  result_number: 0.0206
- mutation_key: "T35C A56T"
  parameter: "fraction ligated"
  result_number: 0.796
- mutation_key: "T25A T29G"
  parameter: "fraction ligated"
  result_number: 0.691

Below is a list of variants. For each, state its recorded fraction ligated.
1. G46T A56T
2. T49A A56G
3. C28A A36T
4. T29G C33A
5. A27G C40G

Result:
[0.237, 0.116, 0.811, 0.85, 0.813]

Lab note: each variant below needs its fraction ligated filled in.
1. T32C T45A
2. A41T T49G
3. C26G C33G
4. T32A A56T

Result:
[0.726, 0.749, 0.754, 0.82]

Each variant below has a recorded value; state its fraction ligated.
1. T25G C42G
2. A27C A37C
3. T23G T43C
4. T23C T44A
5. C33T A57C

Result:
[0.737, 0.793, 0.747, 0.817, 0.841]

Dear colleague, could you please provide fraction ligated for the variants listed below?
1. C33T G38C
2. C42T
3. T25G A48T

Result:
0.835
0.856
0.818
